Where do the numbers come from? From patent US4073892A.

Molecular target: thrombin (Bos taurus)
Construct: purchased Mochida Pharmaceutical Co., Ltd
Assay: fibrinogen coagulation time (antithrombotic activity)
Format: biochemical
Settings: bovine fibrinogen, thrombin solution 5 units/ml, borate saline buffer pH 7.4, 25° C; normal coagulation time 50-55 seconds
property_name: Concentration Required to Prolong The Coagulation Time By A Factor of Two (µM)

Below: 5 compounds and their reported Concentration Required to Prolong The Coagulation Time By A Factor of Two.
CCCCCCCCOC(=O)CN(CCOC)C(=O)[C@H](CCCNC(=N)N)NS(=O)(=O)c1ccc2cc(OC)c(OC)cc2c1: 2
COCCCN(CC(=O)O)S(=O)(=O)c1ccc2cc(OC)c(OC)cc2c1: 5
CCOCCN(CCC(=O)O)C(=O)[C@H](CCCNC(=N)N)NS(=O)(=O)c1ccc2cc(OC)c(OC)cc2c1: 4
CCOC(=O)CN(CCOC)C(=O)[C@H](CCCNC(=N)N)NS(=O)(=O)c1ccc2cc(OC)c(OC)cc2c1: 1.5
CCCCCN(CC(=O)O)C(=O)[C@H](CCCNC(=N)N)NS(=O)(=O)c1ccc2cc(OC)c(OC)cc2c1: 5

1 = CCCC(C(=O)O)N(CC(=O)O)C(=O)[C@H](CCCNC(=N)N)NS(=O)(=O)c1ccc2cc(OC)c(OC)cc2c1 (stereo partly drawn)
2 = CCOc1cc2ccc(S(=O)(=O)N[C@@H](CCCNC(=N)N)C(=O)N(CCOC)CC(=O)O)cc2cc1OCC
Prompt: Of 1 and 2 , whose reported Concentration Required to Prolong The Coagulation Time By A Factor of Two is the larger number? # reply format: chosen label
Response: 1

1 = CCCCCCN(CC(=O)O)C(=O)[C@H](CCCNC(=N)N)NS(=O)(=O)c1ccc2cc(OC)c(OC)cc2c1
2 = COCCN(CCC(=O)O)C(=O)[C@H](CCCNC(=N)N)NS(=O)(=O)c1ccc2cc(OC)c(OC)cc2c1
Prompt: Form: Entry with minimum Concentration Required to Prolong The Coagulation Time By A Factor of Two (choose one): 1 / 2 # reply format: chosen label
Response: 1
(1: 1.5 µM, 2: 2.5 µM)

a = CCCCN(CC(=O)O)C(=O)[C@H](CCCNC(=N)N)NS(=O)(=O)c1ccc2cc(OC)ccc2c1
b = CCOC(=O)CCN(CC(=O)O)C(=O)[C@H](CCCNC(=N)N)NS(=O)(=O)c1ccc2cc(OC)c(OC)cc2c1
Prompt: Form: Entry with minimum Concentration Required to Prolong The Coagulation Time By A Factor of Two (choose one): a / b # reply format: chosen label
Response: a

a = COCCN(CC(=O)Oc1ccc2c(c1)CCC2)C(=O)[C@H](CCCNC(=N)N)NS(=O)(=O)c1ccc2cc(OC)c(OC)cc2c1
b = CCCCN(CC(=O)O)C(=O)[C@H](CCCNC(=N)N)NS(=O)(=O)c1cc(OC)c2cc(OC)ccc2c1
Prompt: Of a and b , whose reported Concentration Required to Prolong The Coagulation Time By A Factor of Two is the larger number? # reply format: chosen label
Response: a

----------
Overview of reported Concentration Required to Prolong The Coagulation Time By A Factor of Two across a group of compounds:
Target: thrombin (Bos taurus, UniProt P00735)
Construct: purchased Mochida Pharmaceutical Co., Ltd
Experiment: fibrinogen coagulation time (antithrombotic activity)
Type: biochemical
Settings: bovine fibrinogen, thrombin solution 5 units/ml, borate saline buffer pH 7.4, 25° C; normal coagulation time 50-55 seconds
Give the quantity in µM, number only.

Prompt: Give the value of Concentration Required to Prolong The Coagulation Time By A Factor of Two reported for the following: CCCN(CC(=O)O)C(=O)[C@H](CCCNC(=N)N)NS(=O)(=O)c1ccc2cc(OC)c(OC)cc2c1
Response: 8

Prompt: Give the value of Concentration Required to Prolong The Coagulation Time By A Factor of Two reported for the following: COCCN(CC(=O)O)C(=O)[C@H](CCCNC(=N)N)NS(=O)(=O)c1cc(OC)c2cc(OC)ccc2c1
Response: 4

Prompt: Give the value of Concentration Required to Prolong The Coagulation Time By A Factor of Two reported for the following: COCCN(CC(=O)O)C(=O)[C@H](CCCNC(=N)N)NS(=O)(=O)c1ccc2cc(OC)c(OC)cc2c1
Response: 0.5
